# System: Sprague Dawley Rats
# Assay Info: Food intake in healthy Sprague Dawley rats after single s.c. dose
# Type: in vivo, rat
# Experimental Setup: SD rats fasted overnight, single s.c. dose 2.5 μg/kg, food intake monitored 0-4 h and 4-24 h
Ends that are not written are not given here.
Attribute Measured: Food Intake ΔFOOD Sustained Attenuation Hours (h)
The figure you give is taken to be in h; do not add the unit.

{"Substance": "CGNLSTCMLGRLTQDFHKLHTFPKTDVGANAP (not fully specified; ends and bridges not checked) [KBP-058, Calcitonin mimetic peptide]", "Observed Measurement": 24}
{"Substance": "KBP-051: Calcitonin mimetic peptide, Table 1 residues CSNLSTCMLGRLSQDLHRLQTYPKTAIGVGAP (not fully specified; ends and bridges not checked)", "Observed Measurement": 4}
{"Substance": "KBP-054: Calcitonin mimetic peptide, Table 1 residues CGNLST, positions 7-8 blank, LGRYTQDFHKPQTFPKTDVGANAP", "Observed Measurement": 4}
{"Substance": "CGNLSTCMLGRLTQDLHKLQTFPKTDVGANAP (not fully specified; ends and bridges not checked) [KBP-053, Calcitonin mimetic peptide]", "Observed Measurement": 24}
{"Substance": "CGNLSTCMLGRLSQDLNKFHTFPKTDVGANAP (not fully specified; ends and bridges not checked) [KBP-047, Calcitonin mimetic peptide]", "Observed Measurement": 24}

Ask: For the substance KBP-059: Calcitonin mimetic peptide, Table 1 residues CGNLSTCMLGTYTQDLHKLHTFPKTDVGANAP (not fully specified; ends and bridges not checked) , what Food Intake ΔFOOD Sustained Attenuation Hours is on record?
Reply: 4

Ask: Value lookup for Food Intake ΔFOOD Sustained Attenuation Hours; key = CGNLSTCMLGRLTQDLNKFHTFPKTDVGANAP (not fully specified; ends and bridges not checked) [KBP-062, Calcitonin mimetic peptide]
Reply: 24

Ask: Food Intake ΔFOOD Sustained Attenuation Hours lookup needed for KBP-048: Calcitonin mimetic peptide, Table 1 residues CGNLSTCMLGTYTQDFNKFNTFPKTDVGANAP , thanks.
Reply: 4

Ask: Form field: reported Food Intake ΔFOOD Sustained Attenuation Hours of KBP-061: Calcitonin mimetic peptide, Table 1 residues CGNLSTCMLGTYTQDFHRLQTFPQTDVGANAP (printed identical to KBP-060) (not fully specified; ends and bridges not checked)
Reply: 4

Ask: GET /values?readout=Food Intake ΔFOOD Sustained Attenuation Hours&item= KBP-046: Calcitonin mimetic peptide, Table 1 residues CGNLSTCMLGTYTQDFHRLQTYPKTDVGANAP (not fully specified; ends and bridges not checked)
Reply: 4

* * *

The following substances are listed with their measured Food Intake ΔFOOD Sustained Attenuation Hours values.
# System: Sprague Dawley Rats
# Assay Info: Food intake in healthy Sprague Dawley rats after single s.c. dose
# Type: in vivo, rat
# Experimental Setup: SD rats fasted overnight, single s.c. dose 2.5 μg/kg, food intake monitored 0-4 h and 4-24 h
Ends that are not written are not given here.
Numbers only; they are read as h.

// known answers, use as guide
{"Substance": "CGNLSTCMLGRLSQDLNKFHTFPQTDVGANAP (not fully specified; ends and bridges not checked) [KBP-063, Calcitonin mimetic peptide]", "Observed Measurement": 24}
{"Substance": "KBP-060: Calcitonin mimetic peptide, Table 1 residues CGNLSTCMLGTYTQDFHRLQTFPQTDVGANAP", "Observed Measurement": 4}

Ask: May I ask what Food Intake ΔFOOD Sustained Attenuation Hours has been recorded for KBP-052: Calcitonin mimetic peptide, Table 1 residues CSNLSTCMLGTYTQDFHRLQTYPKTAIGVGAP (not fully specified; ends and bridges not checked) ?
Reply: 4

Ask: Food Intake ΔFOOD Sustained Attenuation Hours for KBP-050: Calcitonin mimetic peptide, Table 1 residues CGNLSTCMLGRLSQDLHRLQTYPKTAIGVGAP (not fully specified; ends and bridges not checked) ?
Reply: 4
